Reported values: pKi for UniProt:Q15661, one per item.
Sequence (Q15661 whole entry): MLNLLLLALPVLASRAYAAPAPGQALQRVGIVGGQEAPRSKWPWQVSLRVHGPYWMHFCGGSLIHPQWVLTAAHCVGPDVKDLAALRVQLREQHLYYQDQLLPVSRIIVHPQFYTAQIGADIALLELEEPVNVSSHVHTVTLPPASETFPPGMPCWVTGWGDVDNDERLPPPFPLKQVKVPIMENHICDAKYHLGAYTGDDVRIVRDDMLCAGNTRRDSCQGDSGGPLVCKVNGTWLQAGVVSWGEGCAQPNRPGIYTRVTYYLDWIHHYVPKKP
pKi: −log10 of the molar value.
reportedMetric: pKi

INSERT INTO assay_data (smilesstructure, readoutrelation, measurement) VALUES
  ('Cc1ccc2c(C(=O)N3CCC(c4cccc(CN)c4)CC3)c[nH]c2c1', '<', 5.70),
  ('CCCCCCn1cc(C(=O)N2CCC(c3cccc(CN)c3)CC2)c2ccccc21', '=', 6.90),
  ('CCCn1cc(C(=O)N2CCC(c3cccc(CN)c3)CC2)c2ccccc21', '=', 6.73),
  ('NCc1cccc(C2CCN(C(=O)c3cn(-c4cccnc4)c4ccccc34)CC2)c1', '=', 6.71),
  ('CCn1cc(C(=O)N2CCC(c3cccc(CN)c3)CC2)c2cccc(C)c21.O=C(O)C(F)(F)F', '=', 7.39);

Cited source: ChEMBL document CHEMBL1145266
